The reported numbers originate from ChEMBL document CHEMBL1128446.

Tested on: Mycobacterium avium
experiment: Minimum Inhibitory Concentration against clinical isolates of Mycobacterium avium complex ATCC 49601
Format: functional
Let's look at some compounds and their measured MIC.
Write it as a number; the unit µg/mL goes unstated.

Exercise: Name the recorded MIC for Cc1ccc(C(C)OC(=O)c2cnc(Cl)cn2)cc1 (centres undefined) .
Key: 16

Exercise: Need MIC, item CCCCCCC(C)(CCCCCC)OC(=O)c1cnc(Cl)cn1
Key: 16

Exercise: For CCCCCCCCCOC(=O)c1cnc(Cl)cn1 , what is its reported MIC?
Key: 16

----------
System: Mycobacterium kansasii
experiment: Minimum Inhibitory Concentration against clinical isolates of Mycobacterium kansasii S
Format: functional
measured_parameter: MIC (µg/mL)
The figure you give is taken to be in µg/mL; do not add the unit.

Some solved cases for reference:
                                   compound  measured_parameter  measured
0      CCCCCCC(C)(CCCCCC)OC(=O)c1cnc(Cl)cn1                 MIC         2
1             CCCCCCCCCCCCCCCOC(=O)c1cnccn1                 MIC         1
2                            O=C(O)c1cnccn1                 MIC       256
3                      CCOC(=O)c1cnc(Cl)cn1                 MIC         2
4  CCCCCCCCCC(C)OC(=O)c1cnc(Cl)cn1 (centres undefined)                 MIC      0.25
5                      CCCOC(=O)c1cnc(C)cn1                 MIC         8

Exercise: Identify the measured MIC of CCCCCCC(C)(C)OC(=O)c1cnc(Cl)cn1 for Mycobacterium kansasii.
Key: 1

Exercise: Provide value of MIC for this record tested with Mycobacterium kansasii: CC(OC(=O)c1cnc(Cl)cn1)c1ccc(Br)cc1 (centres undefined)
Key: 0.25

Exercise: Find the measured MIC: item CCCCCCCCCCCOC(=O)c1cnc(Cl)cn1 , target or system Mycobacterium kansasii.
Key: 0.06

Exercise: // fetch Mycobacterium kansasii MIC for CCCCCC(C)(CCCC)OC(=O)c1cnc(Cl)cn1 (centres undefined)
Key: 16

Exercise: Item CCCCCCCCCCOC(=O)c1cnccn1 with Mycobacterium kansasii - MIC?
Key: 0.25

Exercise: Notebook: pull reported MIC for Mycobacterium kansasii, entry O=C(O)c1cnc(Cl)cn1
Key: 64

Exercise: Please state recorded MIC (tested on Mycobacterium kansasii) of O=C(OCc1ccc(Br)cc1)c1cnc(Cl)cn1
Key: 0.125

Exercise: Lab note: need MIC with Mycobacterium kansasii for entry O=C(OCCc1ccccc1)c1cnc(Cl)cn1 , please look it up.
Key: 0.25

Exercise: What reported MIC corresponds to CCCCC(OC(=O)c1cnc(Cl)cn1)c1ccccc1 (centres undefined) on Mycobacterium kansasii?
Key: 1

Exercise: // map CCCCCCCC(OC(=O)c1cnc(Cl)cn1)C(C)(C)C (centres undefined) to recorded MIC (system: Mycobacterium kansasii)
Key: 0.25

----------
Tested on: Mycobacterium kansasii
experiment: Minimum Inhibitory Concentration against clinical isolates of Mycobacterium kansasii S
Format: functional
Exam item: assign YES to entries whose MIC is below 8 µg/mL and NO to entries at or above 8 µg/mL. Note that a value of exactly 8 µg/mL receives NO.

Exercise: Is MIC strictly under 8 µg/mL for the entry CCCCCOC(=O)c1cnc(Cl)cn1 ?
Key: YES

Exercise: Hello, I'm reviewing records and need to know if MIC of COC(=O)c1cnccn1 is below 8 µg/mL. Could you check?
Key: NO

Exercise: Does the reported MIC of CCCCCCCOC(=O)c1cnc(Cl)cn1 stay below 8 µg/mL?
Key: YES

Exercise: # strict comparison: is reported MIC < 8 µg/mL? input = CCCCCCCOC(=O)c1cnc(C)cn1
Key: YES

Exercise: Please let me know if CCCCCCCCCCCC(C)OC(=O)c1cnc(Cl)cn1 (centres undefined) shows MIC below 8 µg/mL.
Key: YES

Exercise: Confirm or reject: MIC of Cc1cnc(C(=O)O)cn1 lies strictly below 8 µg/mL
Key: NO

Exercise: Lab note: confirm whether the reported MIC for this compound is below 8 µg/mL, equality not counting. compound: CCCCCCCCCOC(=O)c1cnc(C)cn1
Key: YES

Exercise: # check: MIC < 8 µg/mL for CCCCCC(C)OC(=O)c1cnc(Cl)cn1 (centres undefined)
Key: YES

----------
System: Mycobacterium kansasii
experiment: Minimum Inhibitory Concentration against clinical isolates of Mycobacterium kansasii S
Type: functional
measured_parameter: log10(MIC) (log10 of the value in µg/mL)
Reminder: these figures are log10 of reported MIC, in µg/mL before transformation.

>>> df
                                   compound  measured
0          O=C(OCCc1ccc(Cl)cc1)c1cnc(Cl)cn1     -0.30
1  CCCCCC(CC)OC(=O)c1cnc(C)cn1 (stereo not given)      0.60
2                     CCCOC(=O)c1cnc(Cl)cn1     -0.60
3               CCCCCCCCCCOC(=O)c1cnc(F)cn1      0.00
4                  CCCCCCOC(=O)c1cnc(Cl)cn1     -1.82
5              CCCCCCCCCCOC(=O)c1cnc(Cl)cn1     -0.30

Please find the next compound below.
Exercise: Sample COC(=O)c1cnc(F)cn1 — what was its log10(MIC)?
Key: 0.90

----------
System: Mycobacterium avium
experiment: Minimum Inhibitory Concentration against clinical isolates of Mycobacterium avium complex ATCC 49601
Assay type: functional
measured_parameter: MIC (µg/mL)
State the answer as a number, implicitly in µg/mL.

>>> df
                                   molecule  result_unit  measured
0             CCCCCCCCCCCCCCCOC(=O)c1cnccn1        µg/mL         8
1  CCCCCCCCCCCC(C)OC(=O)c1cnc(Cl)cn1 (stereo not given)        µg/mL        32
2                  CCCCCCCOC(=O)c1cnc(C)cn1        µg/mL        32

Exercise: So what's the measured MIC for this one? CC(C)COC(=O)c1cnc(Cl)cn1
Key: 64

Exercise: Consider the molecule CCCCCCCCC(C)OC(=O)c1cnc(Cl)cn1 (stereo not given) and give its measured MIC.
Key: 32

Exercise: Quick one: MIC of O=C(OCCc1ccccc1)c1cnc(Cl)cn1 ?
Key: 8

Exercise: State the recorded MIC for this entry: CCCCCCCC(C)OC(=O)c1cnc(Cl)cn1 (stereo not given)
Key: 32

Exercise: Which value of MIC has been reported for CCOC(=O)c1cnc(Cl)cn1 in the records?
Key: 128

Exercise: Requested field: MIC. Item: CC(C)(C)OC(=O)c1cnc(Cl)cn1
Key: 128

Exercise: Can you share its MIC? I mean this molecule: CCCCCOC(=O)c1cnc(Cl)cn1
Key: 32

----------
Tested on: Mycobacterium kansasii
experiment: Minimum Inhibitory Concentration against clinical isolates of Mycobacterium kansasii S
Assay type: functional
measured_parameter: MIC

In [3]: df
Out[3]:
                                   compound  measured_parameter    measured
0  Cc1cc(C(C)(C)C)c(OC(=O)c2cnccn2)c(C(C)(C)C)c1                 MIC  > 16 µg/mL

Exercise: // lookup MIC for CCCCCCCCC(C)OC(=O)c1cnc(Cl)cn1 (stereo not drawn)
Key: < 0.12 µg/mL

Exercise: Could you tell me which MIC is on file for CCCCCCCC(C)OC(=O)c1cnc(Cl)cn1 (stereo not drawn) ?
Key: < 0.03 µg/mL

----------
Tested on: Mycobacterium kansasii
experiment: Minimum Inhibitory Concentration against clinical isolates of Mycobacterium kansasii S
Format: functional
Listing: MIC of selected compounds

Study these solved cases before continuing.
In [3]: df
Out[3]:
                 smiles_input  measured_parameter      measured
0  CCCCCCCCOC(=O)c1cnc(Cl)cn1                 MIC  < 0.03 µg/mL
1  CC(C)(C)OC(=O)c1cnc(Cl)cn1                 MIC     < 1 µg/mL

Now consider the entry below.
Exercise: Look up MIC for this compound: C=CCOC(=O)c1cnc(Cl)cn1
Key: < 1 µg/mL

----------
System: Mycobacterium avium
experiment: Minimum Inhibitory Concentration against clinical isolates of Mycobacterium avium complex ATCC 49601
Assay type: functional
measured_parameter: MIC

Here are 2 compounds together with their reported answers.
In [3]: df
Out[3]:
               compound     measured
0  CCCOC(=O)c1cnc(C)cn1   > 64 µg/mL
1       COC(=O)c1cnccn1  > 256 µg/mL

Exercise: Using the record for CCCCCCCC(C)(CCCCC)OC(=O)c1cnc(Cl)cn1 (stereo not given) , report its MIC.
Key: > 64 µg/mL

Exercise: If you can, please state the reported MIC value of Cc1cc(C(C)(C)C)c(OC(=O)c2cnccn2)c(C(C)(C)C)c1 .
Key: > 1020 µg/mL

Exercise: Item COC(=O)c1cnc(C)cn1 has what recorded MIC?
Key: > 256 µg/mL
